# assayComment: growth inhibitors of anaerobic choline-fed gram-negatives, minimal medium, absorbance (AID 1963822)
# studyConditions: Gram-negative bacterium anaerobic choline minimal medium, measured here: choline growth z-score, timepoint 1, stronger effect = lower value
The whole screen tested about 55,000 compounds, of which about 90 (0.2%) were called active. This is one part of a sample in which actives are shown more often than they occur.
reportedEndpoint: z-score
Keep it simple and answer with nothing but the number.

# annotated cases, reported z-score shown
Asked: Consider the molecule `O=C(NCc1ccc(Cl)cc1)c1ccc(-n2nnc3cccnc32)cc1` and give its measured z-score.
Given back: 0.46

Asked: # get_value(readout='z-score', item= `COc1ccc(-n2nnc3c(N4CCN(C(=O)CC5CCCC5)CC4)ncnc32)cc1` )
Given back: 0.31

Next:
Asked: Could you share which z-score value was measured for `C=CCSc1n[nH]c(NC(C)=O)n1` ?
Given back: 0.64

Asked: Tell me the measured z-score of `O=C(NCCc1cscn1)[C@H]1CSCN1C(=O)c1ccccc1` , please.
Given back: 0.42

Asked: May I ask what z-score has been recorded for `O=C1Nc2ccccc2Oc2cc(Cl)c(S(=O)(=O)N3CCCC3)cc21` ?
Given back: -0.01

Asked: Field request: z-score | item: Cc1ccccc1C1CC(=O)c2cnc3c(-c4ccc(F)cc4)c(C)nn3c2C1 (stereo unspecified)
Given back: 0.27

Asked: Value lookup for z-score; key = CN(C)C(=O)c1cc2c(s1)CCC(C(=O)N(C)C)C2 (stereo unspecified)
Given back: 0.33

Asked: Recorded z-score of `Cc1noc(-c2cccnc2N2CCN(C(c3ccccc3)c3ccccc3)CC2)n1` , please.
Given back: 0.28

Asked: So what does the record say about z-score for Cc1ccc(N2CC(c3nc(-c4ccc(N5CCCC5)cc4)no3)CC2=O)cc1C (stereo unspecified) ?
Given back: 0.93

Asked: Any idea what z-score was measured for `COc1ccc(-c2nc(SCC(=O)Oc3ccc(C)cc3C)n3[nH]c(=O)cc3n2)cc1` ?
Given back: -0.44

Asked: Request the reported z-score associated with `Cc1ccc(/C=C/c2nn3c(-c4ccoc4C)nnc3s2)cc1C`
Given back: 0.36
